- Tested on: RPMI-8226 leukemia
- ASSAY PROTOCOL: NCI tumour cell line growth inhibition, 48 h
MEASUREMENT KIND: TGI

| MOLECULE | VALUE REPORTED |
| --- | --- |
| O=C(O)[C@H](Cc1ccccc1)NCCN1CCC[C@H]1C(=O)O | > 100 µM |
| NS(=O)(=O)c1ccc(N(/C=C/C(=O)C(F)(F)F)Cc2ccc(Cl)cc2)cc1 | 89.1 µM |
| COc1ccc(/C(=C/n2ccnc2)C(O)c2ccc(OC)c(OC)c2)cc1OC (stereo unspecified) | > 100 µM |
| CCNC12CCC(C1)C(C)(C)C2=O (stereo unspecified) | > 100 µM |
| Cc1cccc(C(C)(C)C)c1NC(=O)CCc1nc(=S)[nH][nH]1 | > 100 µM |
| CCOC(OCC)N1C(=O)C2(C(OCC)OCC)CC3C(OC(=O)N3N)c3cccc1c32 (stereo unspecified) | > 100 µM |
| O=c1[nH]c(=O)n(C2CC(O)C(CO)O2)c2nc3ccc4cc5ccccc5cc4c3nc12 (stereo unspecified) | > 100 µM |
| NS(=O)(=O)NCCNc1nonc1C(=Nc1ccc(F)c(Br)c1)NO | > 100 µM |
| CC1=C(/C=C/C(C)=C/C=C/C(C)=C/C(=O)O)C(C)(C)CCC1 | 57.7 µM |
| CN=C(N)c1ccc(N=C(N)c2ccc(C(N)=Nc3ccc(C(N)=NC)cc3)cc2)cc1 | > 100 µM |
| C[C@]12CC[C@@H]3c4ccc(O)cc4CC[C@H]3[C@@H]1CC[C@@H]2OC(=O)CCc1ccccc1 | 35.6 µM |
| Cc1ccc2c(ccc(/C=C\c3cc(C)c4cccnc4c3O)[n+]2C)c1 | 21.6 µM |
| CCCCCCCCCCCCCCCCCCOCC(CCP(=O)(CP(=O)(O)O)Oc1ccccc1)OCCCCCCCCCCCCCCCCCC (stereo unspecified) | > 100 µM |
| NS(=O)(=O)CC1CC[CH-]CC1.[Cl-].[Cl-].[Cl-].[Cl-].[Cl-].[Sb+5].c1ccncc1 | > 100 µM |
| Oc1ccc(C2c3ccccc3Oc3ccccc32)c2cccnc12 | > 100 µM |
| [N-]=[N+]=NCCCn1c2c(c3ccc([N+](=O)[O-])cc3c1=O)C(=O)c1cc(F)ccc1-2 | 1.28 µM |
| COC(=O)C1Cc2ccc3c(c2C1=O)CCCC3 (stereo unspecified) | > 100 µM |
| O=C1OC(C2(O)OC(=O)c3ccccc32)c2ccccc21 (stereo unspecified) | > 100 µM |
| Oc1c(Cl)cc(Cl)cc1C(c1cc(Cl)cc(Cl)c1O)C(Cl)(Cl)Cl | 54.2 µM |
| CN(C)CCNC(=O)Cn1cnc2cccc([N+](=O)[O-])c2c1=O | > 100 µM |
| COc1cc(C(=O)CC2OC(=O)C(Cl)=C2Cl)ccc1Cl (stereo unspecified) | > 100 µM |
